System: NOMO1
Experiment: cell viability relative to DMSO control; higher = less cytotoxic
Conditions: RPMI 5 mM glucose + 10% FBS; 48 h; 0.000781 µM
Known cell viability of a selection of compounds
# output: bare number, implied unit %

compound=O=C(CCCCCCC(=O)Nc1ccc([C@H]2O[C@@H](CSc3nc(-c4ccccc4)c(-c4ccccc4)o3)C[C@@H](c3ccc(CO)cc3)O2)cc1)NO target_or_test_system=NOMO1 value_type="cell viability" unit_name=% test_result=120
compound=Cc1ccc(C(=O)Nc2cccc(C(F)(F)F)c2)cc1-c1ccc2nc(NCCN3CCOCC3)ncc2c1 target_or_test_system=NOMO1 value_type="cell viability" unit_name=% test_result=115
compound="C[C@H](CCC(=O)O)[C@H]1CCC2C3C[C@H](O)[C@@H]4C[C@H](O)CC[C@]4(C)C3CC[C@@]21C (some centres undefined)" target_or_test_system=NOMO1 value_type="cell viability" unit_name=% test_result=113

// next entry
# cell viability lookup, item `O=C([O-])C[C@H](O)C[C@H](O)/C=C/c1c(C2CC2)nc2ccccc2c1-c1ccc(F)cc1` 108

* * *

Known cell viability of a selection of compounds
System: NOMO1
Experiment: cell viability relative to DMSO control; higher = less cytotoxic
Details: HPLM + 10% dialyzed FBS; 48 h; 0.00702 µM
Give your result as the value with the unit written after it.

given_smiles=O=C(Nc1c[nH]nc1-c1nc2cc(CN3CCOCC3)ccc2[nH]1)NC1CC1 test_result=113%
given_smiles=CCN1C[C@H](C)[N]2C(=C(O)C3=C2\C(=N/N(CC4=CC=C(F)C(=C4)Cl)C3=O)C(=O)NC)C1=O test_result=118%

# cell viability lookup, item `Cc1cn([C@H]2C=C[C@@H](CO)O2)c(=O)[nH]c1=O` 116%

# cell viability lookup, item `CN1CCN(c2c(F)cc3c(=O)c(C(=O)O)cn(CCF)c3c2F)CC1` 114%

# cell viability lookup, item `CN(C)C1=CC(=CC=C1)C\2=C\3C(=O)N(NC3=C/C(=O)N2C)C4=CC=CC=C4Cl` 127%

# cell viability lookup, item `CC(=O)OC[C@H]1O[C@@H]([S-])[C@H](OC(C)=O)[C@@H](OC(C)=O)[C@@H]1OC(C)=O.CCP(CC)CC.[Au+]` 96.5%

# cell viability lookup, item `Cc1ccc(C(=O)Nc2cccc(C(F)(F)F)c2)cc1-c1ccc2nc(NCCN3CCOCC3)ncc2c1` 111%

# cell viability lookup, item `CCN(CCO)CCCOc1ccc2c(Nc3cc(CC(=O)Nc4cccc(F)c4)[nH]n3)ncnc2c1` 102%

# cell viability lookup, item `[O-]C(=O)C/1=N/C(=O)NC(=O)N1` 92.9%

# cell viability lookup, item `O=C(Nc1nnc(-c2ccco2)o1)c1cc(-c2ccccc2)nc2ccccc12` 117%

# cell viability lookup, item `O=C(CC12CC3CC(CC(C3)C1)C2)Nc1cccc2nc(NCCNCCO)ccc12` 89.4%

* * *

Known cell viability of a selection of molecules
Tested on: P12-Ichikawa
Test: cell viability relative to DMSO control; higher = less cytotoxic
Settings: HPLM + 10% dialyzed FBS; 48 h; 0.19 µM
# output: bare number, implied unit %

Some solved entries appear below for comparison.
molecule=CN1CCN(c2c(F)cc3c(=O)c(C(=O)O)cn(CCF)c3c2F)CC1 target_or_test_system=P12-Ichikawa test_result=111
molecule=N#C/C(=C\c1ccc(O)c(O)c1)C(=O)NCc1ccccc1 target_or_test_system=P12-Ichikawa test_result=106
molecule=CC[N+](CC)(CC)CCOc1cccc(OCC[N+](CC)(CC)CC)c1OCC[N+](CC)(CC)CC target_or_test_system=P12-Ichikawa test_result=120
molecule=COC(=O)Nc1nc2cc(C(=O)c3ccc(F)cc3)ccc2[nH]1 target_or_test_system=P12-Ichikawa test_result=104
molecule="COc1ccc(C(CN(C)C)C2(O)CCCCC2)cc1 (configuration not stated)" target_or_test_system=P12-Ichikawa test_result=114
molecule="CC\\12CCC(=O)\\C=C1CCC3C2CCC4(C)C3CCC4(O)C#C (configuration not stated)" target_or_test_system=P12-Ichikawa test_result=93.4

// next entry
# cell viability lookup, item `CC(C)=CCC/C(C)=C/CC/C(C)=C/CC/C(C)=C/CC/C(C)=C/CC/C(C)=C/CC/C(C)=C/CC/C(C)=C/CC/C(C)=C/CO` 109

* * *

System: SEM cells
Assay: AUC of viability dose-response curve (% viability x log10 dose units); higher = less sensitive
Conditions: RPMI 5 mM glucose + 10% dialyzed FBS; 48 h
value_type: AUC of viability dose-response curve
# answer = number (no unit)

compound=COc1cc(CCc2cc(NC(=O)c3ccc(N4C[C@@H](C)N[C@@H](C)C4)cc3)n[nH]2)cc(OC)c1 value_type="AUC of viability dose-response curve" test_result=332

# AUC of viability dose-response curve lookup, item `c1ccc2c(Cc3c[nH]c4ccccc34)c[nH]c2c1` 376

# AUC of viability dose-response curve lookup, item `O=[N+]([O-])c1ncc[nH]1` 459

# AUC of viability dose-response curve lookup, item `CCN(CCO)CCCOc1ccc2c(Nc3cc(CC(=O)Nc4cccc(F)c4)[nH]n3)ncnc2c1` 282

* * *

Known cell viability of a selection of compounds
Test system: NOMO1
Assay: cell viability relative to DMSO control; higher = less cytotoxic
Conditions: RPMI 5 mM glucose + 10% dialyzed FBS; 48 h; 15.4 µM
# output: bare number, implied unit %

Some solved entries appear below for comparison.
given_smiles=N\C1=N\C2=C(N=C[N]2COCCO)C(=O)N1 test_result=100
given_smiles=Cc1cn([C@H]2C=C[C@@H](CO)O2)c(=O)[nH]c1=O test_result=129

Recall the recorded cell viability for `CC[N+](CC)(CC)CCOc1cccc(OCC[N+](CC)(CC)CC)c1OCC[N+](CC)(CC)CC` with NOMO1 and state it. 101

Recall the recorded cell viability for `COc1cccc2c1C(=O)c1c(O)c3c(c(O)c1C2=O)C[C@@](O)(C(=O)CO)C[C@@H]3O[C@H]1C[C@H](N)[C@H](O[C@H]2CCCCO2)[C@H](C)O1` with NOMO1 and state it. 110

* * *

Tested on: SEM cells
Experiment: cell viability relative to DMSO control; higher = less cytotoxic
Conditions: RPMI 5 mM glucose + 10% dialyzed FBS; 48 h; 0.0632 µM
value_type: cell viability (%)
# output: bare number, implied unit %

Some solved entries appear below for comparison.
given_smiles=CN1CCN(c2c(F)cc3c(=O)c(C(=O)O)cn(CCF)c3c2F)CC1 test_result=111
given_smiles=CCOC(=O)N1c2ccc(C(F)(F)F)cc2[C@@H](N(Cc2cc(C(F)(F)F)cc(C(F)(F)F)c2)C(=O)OC)C[C@H]1CC test_result=129
given_smiles=CC(C)=CCC/C(C)=C/CC/C(C)=C/CC/C(C)=C/CC/C(C)=C/CC/C(C)=C/CC/C(C)=C/CC/C(C)=C/CC/C(C)=C/CO test_result=105
given_smiles=O=C(CC12CC3CC(CC(C3)C1)C2)Nc1cccc2nc(NCCNCCO)ccc12 test_result=81.6
given_smiles=C/C(=N\NC(=S)N1CCC1)c1ccccn1 test_result=6.49
given_smiles=O=C(Nc1c[nH]nc1-c1nc2cc(CN3CCOCC3)ccc2[nH]1)NC1CC1 test_result=26.9

// next entry
# cell viability lookup, item `N\C1=N\C2=C(N=C[N]2COCCO)C(=O)N1` 95.1

* * *

Known cell viability of a selection of molecules
Tested on: NOMO1
Assay: cell viability relative to DMSO control; higher = less cytotoxic
Conditions: RPMI 5 mM glucose + 10% dialyzed FBS; 48 h; 0.569 µM
# output: bare number, implied unit %

Some solved entries appear below for comparison.
molecule=OC1=CC=C(C=C1)\C2=C\OC3=C(C(=CC(=C3)O)O)C2=O target_or_test_system=NOMO1 test_result=107
molecule=O=C([O-])C[C@H](O)C[C@H](O)/C=C/c1c(C2CC2)nc2ccccc2c1-c1ccc(F)cc1 target_or_test_system=NOMO1 test_result=129
molecule=CN1CCN(c2c(F)cc3c(=O)c(C(=O)O)cn(CCF)c3c2F)CC1 target_or_test_system=NOMO1 test_result=115
molecule=CCN(CCO)CCCOc1ccc2c(Nc3cc(CC(=O)Nc4cccc(F)c4)[nH]n3)ncnc2c1 target_or_test_system=NOMO1 test_result=52.6
molecule="O=C(CS(=O)Cc1ccco1)NC/C=C\\COc1cc(CN2CCCCC2)ccn1 (stereo unspecified)" target_or_test_system=NOMO1 test_result=108

// next entry
# cell viability lookup, item N[S+](=O)([O-])c1cc2c(cc1Cl)NC(C(Cl)Cl)N[S+]2(=O)[O-] (stereo unspecified) 120

* * *

Test system: P12-Ichikawa
Experiment: cell viability relative to DMSO control; higher = less cytotoxic
Conditions: RPMI 5 mM glucose + 10% dialyzed FBS; 48 h; 15.4 µM
value_type: cell viability (%)
# output: bare number, implied unit %

compound=Cc1cc(OCCC[S+](C)(=O)[O-])cc(C)c1-c1cccc(COc2ccc3c(c2)OC[C@H]3CC(=O)O)c1 unit_name=% test_result=82.4
compound="CCOC(=O)C(C#N)C\\1C2=CC(=CC=C2O\\C(=C1C(=O)OCC)N)Br (stereo not given)" unit_name=% test_result=95

# cell viability lookup, item `COC(=O)Nc1nc2cc(C(=O)c3ccc(F)cc3)ccc2[nH]1` 73.9

# cell viability lookup, item `COc1cc([C@@H]2c3cc4c(cc3[C@H](O)[C@H]3COC(=O)[C@@H]23)OCO4)cc(OC)c1OC` 10.4

# cell viability lookup, item `Cc1c(-c2cccc3c(CCCOc4cccc5ccccc45)c(C(=O)O)n(Cc4cccnc4)c23)c(COc2ccc(N3CCN([S+](=O)([O-])N(C)C)CC3)cc2)nn1C` 82.4
